Molecular target: Human immunodeficiency virus type 1 integrase (Human immunodeficiency virus 1)
Assay: Inhibitory concentration against purified recombinant integrase by strand transfer 3D search (experiment 2)
Listed molecules paired with reported IC50
Lab book: enter the figure in µM, no units written.

input: Query the reported IC50 for Human immunodeficiency virus type 1 integrase (Human immunodeficiency virus 1); item: C[C@H]1C(=O)c2c(cc(O)c(C3OC(CO)C(O)C(O)C3O)c2O)OC1c1ccc(O)c(O)c1 (some centres not stated)
output: 47.4

input: Query the reported IC50 for Human immunodeficiency virus type 1 integrase (Human immunodeficiency virus 1); item: O=C(NO)/C(CC(=O)c1ccc(O)cc1O)=N\O
output: 35.8

input: Query the reported IC50 for Human immunodeficiency virus type 1 integrase (Human immunodeficiency virus 1); item: COc1cc2oc(-c3ccc(O)cc3)cc(=O)c2c(O)c1C1OC(CO)C(O)C(O)C1O (configuration not stated)
output: 143

input: Query the reported IC50 for Human immunodeficiency virus type 1 integrase (Human immunodeficiency virus 1); item: CCC/C=C/C=C/[C@@H]1C[C@@H](O)[C@@H](O)C(=O)[C@H]1CO
output: 134

input: Query the reported IC50 for Human immunodeficiency virus type 1 integrase (Human immunodeficiency virus 1); item: O=C(CCCCC(=O)c1ccc(O)cc1O)OCCO
output: 234

input: Query the reported IC50 for Human immunodeficiency virus type 1 integrase (Human immunodeficiency virus 1); item: COc1cc(N)ccc1C(=O)NC(CCC(=O)O)C(=O)O (configuration not stated)
output: 270

input: Query the reported IC50 for Human immunodeficiency virus type 1 integrase (Human immunodeficiency virus 1); item: O=C(CC(O)(c1ccccc1)c1ccc(Cl)cc1)NC(=O)c1ccccc1O (configuration not stated)
output: 141

---

Biological target: UniProt Q7ZJM1
Assay: Inhibitory concentration against purified recombinant integrase by strand transfer in vitro assay (experiment 2)
experimental-readout: pIC50
Answer as the number alone; pIC50 is minus log10 of concentration in mol/L.

Here's what some known entries look like.
# molecule, pIC50
measured = [
    ("COc1cc2oc(-c3ccc(O)cc3)cc(=O)c2c(O)c1C1OC(CO)C(O)C(O)C1O (configuration not stated)", 3.84),
    ("C[C@H]1C(=O)c2c(cc(O)c(C3OC(CO)C(O)C(O)C3O)c2O)OC1c1ccc(O)c(O)c1 (some centres not stated)", 4.32),
    ("O=C(CC(O)(c1ccccc1)c1ccc(Cl)cc1)NC(=O)c1ccccc1O (configuration not stated)", 3.85),
    ("COc1cc(N)ccc1C(=O)NC(CCC(=O)O)C(=O)O (configuration not stated)", 3.57),
]

input: Query the reported pIC50 for UniProt Q7ZJM1; item: CCC/C=C/C=C/[C@@H]1C[C@@H](O)[C@@H](O)C(=O)[C@H]1CO
output: 3.87

input: Query the reported pIC50 for UniProt Q7ZJM1; item: O=C(NO)/C(CC(=O)c1ccc(O)cc1O)=N\O
output: 4.45

input: Query the reported pIC50 for UniProt Q7ZJM1; item: O=C(CCCCC(=O)c1ccc(O)cc1O)OCCO
output: 3.63

---

Biological target: Human immunodeficiency virus type 1 integrase (Human immunodeficiency virus 1, UniProt Q7ZJM1)
Sequence (Q7ZJM1 whole entry): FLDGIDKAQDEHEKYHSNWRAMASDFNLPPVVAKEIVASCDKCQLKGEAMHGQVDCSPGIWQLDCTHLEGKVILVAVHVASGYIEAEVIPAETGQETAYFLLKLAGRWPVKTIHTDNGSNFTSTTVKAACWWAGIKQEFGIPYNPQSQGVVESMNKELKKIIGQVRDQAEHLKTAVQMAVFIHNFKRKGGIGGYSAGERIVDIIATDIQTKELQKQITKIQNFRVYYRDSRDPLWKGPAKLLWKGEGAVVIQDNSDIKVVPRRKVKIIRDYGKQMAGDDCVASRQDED
Assay: Inhibitory concentration against purified recombinant integrase by 3'-processing in 3D search (experiment 2)
IC50 strictly under 300 µM means Fulfilled; at 300 µM or over means Not fulfilled.

See these solved cases before continuing.
# compound, class
data = [
    ("COc1cc(N)ccc1C(=O)NC(CCC(=O)O)C(=O)O (configuration not stated)", "Fulfilled"),
    ("O=C(CCCCC(=O)c1ccc(O)cc1O)OCCO", "Not fulfilled"),
]

input: Hi there! Is IC50 for O=C(CC(O)(c1ccccc1)c1ccc(Cl)cc1)NC(=O)c1ccccc1O (configuration not stated) below 300 µM, do you know?
output: Fulfilled

input: Hi there! Is IC50 for O=C(NO)/C(CC(=O)c1ccc(O)cc1O)=N\O below 300 µM, do you know?
output: Fulfilled

input: Hi there! Is IC50 for C[C@H]1C(=O)c2c(cc(O)c(C3OC(CO)C(O)C(O)C3O)c2O)OC1c1ccc(O)c(O)c1 (some centres not stated) below 300 µM, do you know?
output: Fulfilled

---

Molecular target: Human immunodeficiency virus type 1 integrase (Human immunodeficiency virus 1) (UniProt Q7ZJM1)
Assay: Percentage inhibition was obtained by performing in vitro assay on purified recombinant integrase by strand transfer method at 100 micro g/mL (experiment 1)
Listed compounds paired with reported inhibition
Lab book: enter the figure in %, no units written.

# compound, units-label, inhibition
data = [
    ("CCN(CC)CCCC(C)Nc1cc(F)cc2cccnc12 (stereo not given)", "%", 27.6),
    ("COc1cc2oc(-c3ccc(O)cc3)cc(=O)c2c(O)c1C1OC(CO)C(O)C(O)C1O (stereo not given)", "%", 92.2),
    ("O=c1ccc2cc(O[C@@H]3O[C@H](CO)[C@@H](O)[C@H](O)[C@H]3O)c(O)cc2o1", "%", 67.7),
    ("O=C(NCCO)c1cc(Cl)ccc1O", "%", 0),
    ("O=C(N/N=C/c1ccccc1O)C(O)c1ccccc1 (stereo not given)", "%", 77.9),
    ("O=C(O)CNC(=O)c1ccccc1O", "%", 25),
    ("Cc1cc(CC(=O)NCCO)n(CCO)c(=O)c1", "%", 90.6),
    ("O=C(NCO)c1ccccc1O", "%", 61.5),
    ("O=C(OCCO)c1ccccc1O", "%", 17.1),
    ("O=C(NN(CCO)CCO)c1ccccc1", "%", 52.4),
]

input: Reported inhibition for CCCCCCCCCCCCCCCCCCCN1CN(CO)CN(CO)C1=O : what is it?
output: 54.4

input: Reported inhibition for O=C(CC(=O)Nc1ccccc1O)Nc1ccccc1O : what is it?
output: 57.2

input: Reported inhibition for O=C(N/N=C/c1ccccc1O)C(O)(c1ccccc1)c1ccccc1 : what is it?
output: 70.5

input: Reported inhibition for O=C(CC(O)c1cccnc1)CC(O)c1cccnc1 (stereo not given) : what is it?
output: 48.1

input: Reported inhibition for CCN(CC)CCCC(C)Nc1ccnc2ccc(Cl)nc12 (stereo not given) : what is it?
output: 87.4

---

Molecular target: Human immunodeficiency virus type 1 integrase (Human immunodeficiency virus 1)
Assay: Inhibitory concentration against purified recombinant integrase by strand transfer 3D search (experiment 1)
pIC50: −log10 of the molar value.
Decide using pIC50: a value greater than or equal to 4 is fulfilled, a smaller one is not fulfilled.

# compound, class
records = [
    ("COc1cc2oc(-c3ccc(O)cc3)cc(=O)c2c(O)c1C1OC(CO)C(O)C(O)C1O (configuration not stated)", "not fulfilled"),
]

input: Assess whether reported pIC50 for CCC/C=C/C=C/[C@@H]1C[C@@H](O)[C@@H](O)C(=O)[C@H]1CO sits at 4 or higher.
output: not fulfilled

input: Assess whether reported pIC50 for O=C(NO)/C(CC(=O)c1ccc(O)cc1O)=N\O sits at 4 or higher.
output: fulfilled

input: Assess whether reported pIC50 for O=C(CCCCC(=O)c1ccc(O)cc1O)OCCO sits at 4 or higher.
output: not fulfilled

input: Assess whether reported pIC50 for COc1cc(N)ccc1C(=O)NC(CCC(=O)O)C(=O)O (configuration not stated) sits at 4 or higher.
output: not fulfilled

---

Biological target: Human immunodeficiency virus type 1 integrase (Human immunodeficiency virus 1) (UniProt Q7ZJM1)
Assay: Percentage inhibition was obtained by performing in vitro assay on purified recombinant integrase by 3''-processing method at 100 micro g/mL (experiment 1)
experimental-readout: inhibition (%)
Lab book: enter the figure in %, no units written.

# compound, endpoint-result
data = [
    ("Cc1cc(CC(=O)NCCO)n(CCO)c(=O)c1", 45.3),
    ("O=C(CC(O)c1cccnc1)CC(O)c1cccnc1 (configuration not stated)", 22.5),
    ("CCN(CC)CCCC(C)Nc1ccnc2ccc(Cl)nc12 (configuration not stated)", 43.7),
    ("O=c1ccc2cc(O[C@@H]3O[C@H](CO)[C@@H](O)[C@H](O)[C@H]3O)c(O)cc2o1", 40.8),
    ("CCN(CC)CCCC(C)Nc1cc(F)cc2cccnc12 (configuration not stated)", 36.5),
    ("O=C(O)CNC(=O)c1ccccc1O", 28.9),
    ("O=C(NN(CCO)CCO)c1ccccc1", 25),
    ("O=C(N/N=C/c1ccccc1O)C(O)c1ccccc1 (configuration not stated)", 37),
    ("O=C(N/N=C/c1ccccc1O)C(O)(c1ccccc1)c1ccccc1", 34.7),
    ("O=C(CC(=O)Nc1ccccc1O)Nc1ccccc1O", 23.1),
]

input: Reported inhibition for O=C(OCCO)c1ccccc1O : what is it?
output: 10.9

input: Reported inhibition for COc1cc2oc(-c3ccc(O)cc3)cc(=O)c2c(O)c1C1OC(CO)C(O)C(O)C1O (configuration not stated) : what is it?
output: 62.7
